- system.tested: wild type AXL (wtAXL) receptor tyrosine kinase (Homo sapiens, UniProt P30530)
- Construct: WtAXL cDNA was cloned into vector pLXSN(ESK) and transfected into Phoenix E packaging cells; expressed in transfected cells; host or cells: NIH3T3 N7 mouse fibroblasts, retrovirally infected (clone 22)
- Sequence (P30530 26-894): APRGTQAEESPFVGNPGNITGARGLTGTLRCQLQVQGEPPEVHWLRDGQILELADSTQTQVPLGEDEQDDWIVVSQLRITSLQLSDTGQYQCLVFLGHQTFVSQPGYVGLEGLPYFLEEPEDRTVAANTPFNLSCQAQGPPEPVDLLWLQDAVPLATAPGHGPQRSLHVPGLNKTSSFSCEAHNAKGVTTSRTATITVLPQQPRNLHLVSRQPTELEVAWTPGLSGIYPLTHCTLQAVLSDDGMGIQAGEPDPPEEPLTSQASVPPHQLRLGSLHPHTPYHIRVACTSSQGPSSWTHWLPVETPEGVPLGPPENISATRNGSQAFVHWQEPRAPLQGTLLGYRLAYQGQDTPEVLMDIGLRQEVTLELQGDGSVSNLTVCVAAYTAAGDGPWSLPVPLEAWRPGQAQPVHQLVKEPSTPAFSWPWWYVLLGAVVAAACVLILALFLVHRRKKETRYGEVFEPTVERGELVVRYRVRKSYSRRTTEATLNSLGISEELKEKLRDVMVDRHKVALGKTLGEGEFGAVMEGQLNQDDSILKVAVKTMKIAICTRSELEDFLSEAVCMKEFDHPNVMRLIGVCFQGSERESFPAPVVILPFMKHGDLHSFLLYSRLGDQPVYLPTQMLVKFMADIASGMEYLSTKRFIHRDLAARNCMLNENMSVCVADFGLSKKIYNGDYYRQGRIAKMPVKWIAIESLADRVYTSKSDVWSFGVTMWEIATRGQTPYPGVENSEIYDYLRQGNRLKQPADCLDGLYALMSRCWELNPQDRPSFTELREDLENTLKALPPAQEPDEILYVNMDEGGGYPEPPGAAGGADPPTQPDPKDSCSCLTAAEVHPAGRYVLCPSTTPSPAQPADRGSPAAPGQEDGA
- assay.protocol: NIH-3T3-AXL cellular tyrosine kinase assay (inhibition of AXL phosphorylation)
- Type: cell-based
- measurement.setup: AXL phosphorylation in NIH-3T3-AXL (clone 22) cells, serum-depleted, 2 h with compound, immunoprecipitation / anti-phosphotyrosine blot
pIC50: −log10 of the molar value.
measured.quantity: pIC50

mol.smiles	relation.operator	numeric.readout
COc1cc2nccc(Oc3ccc(NS(=O)(=O)c4cccc(Cl)c4)c(F)c3)c2cc1OC	=	5.62
COc1cc2nccc(Oc3ccc(NS(=O)(=O)c4ccc(Br)cc4OC(F)(F)F)c(F)c3)c2cc1OC	<	5.52
COc1cc2c(Oc3ccc(NS(=O)(=O)c4ccccc4OC(F)(F)F)c(C)c3)ccnc2cc1OCCN1CCOCC1	=	5.60
Cc1cc(Oc2ccc(NS(=O)(=O)c3ccsc3)cc2)c2cc(F)ccc2n1	<	5.00
Cc1cc(Oc2ccc(NS(=O)(=O)c3ccc(Cl)s3)cc2)c2cc(F)ccc2n1	<	5.00

---

- system.tested: wild type AXL (wtAXL) receptor tyrosine kinase (Homo sapiens, UniProt P30530)
- Construct: WtAXL cDNA was cloned into vector pLXSN(ESK) and transfected into Phoenix E packaging cells
- assay.protocol: NIH-3T3-AXL cellular tyrosine kinase assay (inhibition of AXL phosphorylation)
- measurement.setup: AXL phosphorylation in NIH-3T3-AXL (clone 22) cells, serum-depleted, 2 h with compound, immunoprecipitation / anti-phosphotyrosine blot
Structures can show the parent of a compound that is named as a salt.
Assign labels as follows, please: true (1) for IC50 below 500 nM; false (0) for IC50 equal to or exceeding 500 nM.

compound	classification
COc1ccc(S(=O)(=O)Nc2ccc(Oc3ccnc4cc(OC)c(OC)cc34)cc2)cc1Br	false (0)
COc1cc2nccc(Oc3ccc(NS(=O)(=O)c4ccc(-c5cnco5)s4)c(F)c3)c2cc1OC	false (0)
COc1cc2nccc(Oc3ccc(NS(=O)(=O)c4cccc(-c5ccccc5)c4)cc3)c2cc1OC	false (0)
COc1cc2nccc(Oc3ccc(NS(=O)(=O)c4cc(F)ccc4F)c(C)c3)c2cc1OC	false (0)
COc1cc2nccc(Oc3ccc(NS(=O)(=O)c4cccc5ccccc45)cc3OC)c2cc1OC	false (0)
Cc1cc(Oc2ccc(NS(=O)(=O)c3cccs3)c(F)c2)c2cc(F)ccc2n1	false (0)
Cc1cc(Oc2ccc(NS(=O)(=O)c3csc4ccccc34)c(F)c2)c2cccc(C(F)(F)F)c2n1	false (0)
COc1cc2nccc(Oc3ccc(NS(=O)(=O)c4cc(F)ccc4F)cc3C)c2cc1OC	false (0)
COc1cc2c(Oc3ccc(NS(=O)(=O)c4cc(F)ccc4F)c(C)c3)ccnc2cc1OCCN1CCOCC1	false (0)
COc1cc2nccc(Oc3ccc(NS(=O)(=O)c4ccc(-c5ccccc5)s4)c(F)c3)c2cc1OC	false (0)
COc1cc2nccc(Oc3ccc(NS(=O)(=O)c4csc5ccccc45)cc3)c2cc1OC	false (0)
COc1cc2nccc(Oc3ccc(NS(=O)(=O)c4ccc(F)c(Cl)c4)c(F)c3)c2cc1OC	false (0)
COc1cc2c(Oc3ccc(NS(=O)(=O)c4ccccc4OC(F)(F)F)cc3F)ccnc2cc1OCCCN1CCC(C)CC1	true (1)
COc1cc2nccc(Oc3ccc(NS(=O)(=O)c4cccc(-c5ncccn5)c4)c(F)c3)c2cc1OC	false (0)
CCn1cc(S(=O)(=O)Nc2ccc(Oc3cc(C)nc4ccc(F)cc34)cc2)cn1	false (0)
COc1cc2c(Oc3ccc(NS(=O)(=O)c4ccccc4OC(F)(F)F)cc3F)ccnc2cc1OCCCN [Example D15, hydrochloride]	true (1)
COc1cc2nccc(Oc3ccc(NS(=O)(=O)c4ccccc4OC(F)(F)F)cc3F)c2cc1OC	true (1)
COc1cc2nccc(Oc3ccc(NS(=O)(=O)c4ccccc4OC(F)(F)F)cc3C)c2cc1OC	false (0)
COc1cc2c(Oc3ccc(NS(=O)(=O)c4ccc(OC)c5ccccc45)cc3F)ccnc2cc1OCCN1CCOCC1	true (1)
COc1cc2nccc(Oc3ccc(NS(=O)(=O)c4cccc(C#N)c4)c(F)c3)c2cc1OC	false (0)
COc1cc2nccc(Oc3ccc(NS(=O)(=O)c4cccc(Oc5ccccc5)c4)cc3C)c2cc1OC	false (0)

Measured values drawn from patent US9206130B2 for this set.
